Tested on: Sclerotinia fructicola
Experiment: Mycelial growth test
Format: cell-based
Conditions: Sclerotinia, 72 h, SF, 5 ppm, read-out: Percent Fungus Growth Inhibition
Hi there, I'd appreciate the recorded inhibition at 5 ppm for every entry that follows.
Give bare numbers, in %.

>  <structure smiles>
COc1cc(Oc2nsnc(Cl)c2=O)cc(OC)c1C(C)=O

>  <unit of measurement>
%

>  <inhibition at 5 ppm>
7

$$$$
>  <structure smiles>
O=c1c(Cl)nsnc1Oc1c(Cl)cccc1Cl

>  <unit of measurement>
%

>  <inhibition at 5 ppm>
51

$$$$
>  <structure smiles>
O=C(O)c1ccc(Oc2nsnc(Cl)c2=O)cc1

>  <unit of measurement>
%

>  <inhibition at 5 ppm>
59

$$$$
>  <structure smiles>
CC(=O)c1ccccc1Oc1nsnc(Cl)c1=O

>  <unit of measurement>
%

>  <inhibition at 5 ppm>
14

$$$$
>  <structure smiles>
CC(=O)Nc1cccc(Oc2nsnc(Cl)c2=O)c1

>  <unit of measurement>
%

>  <inhibition at 5 ppm>
24

$$$$

Would you be so kind as to report inhibition at 5 ppm for each listed record?
1. O=c1c(Cl)nsnc1Oc1c(Cl)c(Cl)c(Cl)c(Cl)c1Cl
2. CS(=O)(=O)c1ccc(Oc2nsnc(Cl)c2=O)cc1
3. O=c1c(Cl)nsnc1Oc1cccc(Cl)c1Cl
4. O=c1c(Cl)nsnc1Oc1ccc(Cl)cc1
5. CC(=O)c1ccc(Oc2nsnc(Cl)c2=O)cc1
6. O=c1c(Cl)nsnc1Oc1cccc2ccccc12

55
56
64
64
82
74

Would you be so kind as to report inhibition at 5 ppm for each listed record?
1. CC(=O)c1cccc(Oc2nsnc(Cl)c2=O)c1
2. CC(C)(C)c1ccc(Oc2nsnc(Cl)c2=O)cc1

1: 82; 2: 0

Would you be so kind as to report inhibition at 5 ppm for each listed record?
1. Cc1ccc(Cl)c(Oc2nsnc(Cl)c2=O)c1
2. Cc1cccc(C)c1Oc1nsnc(Cl)c1=O

1. 69
2. 100

Would you be so kind as to report inhibition at 5 ppm for each listed record?
1. O=c1c(Cl)nsnc1Cl
2. Cc1cc(Oc2nsnc(Cl)c2=O)cc(C)c1Br
3. O=c1c(Cl)nsnc1Oc1ccccc1Br
4. O=c1c(Cl)nsnc1Oc1cc(Cl)cc(Cl)c1
5. O=C(Nc1ccccc1)Oc1ccc(Oc2nsnc(Cl)c2=O)cc1

[100, 56, 33, 60, 30]

Name the reported inhibition at 5 ppm value associated with the compound O=c1c(Cl)nsnc1Oc1cccc(C(F)(F)F)c1
76

----------
System: Pyricularia oryzae
Experiment: microbe, parasite or virus in culture
Format: cell-based
Conditions: Pyricularia oryzae, 72 h, read-out: Percent Fungus Growth Inhibition, PO, 40 ppm, 72 hours
property: inhibition at 40 ppm (%)
Answers are plain numbers, in %.

For orientation, consider the following solved cases.
>  <molecule>
CCOC(=O)c1ccc(Oc2nsnc(Cl)c2=O)cc1

>  <unit of measurement>
%

>  <inhibition at 40 ppm>
81

$$$$
>  <molecule>
O=C(Nc1ccccc1)Oc1ccc(Oc2nsnc(Cl)c2=O)cc1

>  <unit of measurement>
%

>  <inhibition at 40 ppm>
61

$$$$
>  <molecule>
O=c1c(Cl)nsnc1Oc1cc(Cl)cc(Cl)c1

>  <unit of measurement>
%

>  <inhibition at 40 ppm>
74

$$$$

Would you be so kind as to report inhibition at 40 ppm for each listed record?
1. O=C(Nc1ccccc1)Nc1ccc(Oc2nsnc(Cl)c2=O)cc1
2. O=c1c(Cl)nsnc1Oc1c(Cl)c(Cl)c(Cl)c(Cl)c1Cl
3. CC(=O)c1ccccc1Oc1nsnc(Cl)c1=O
4. Cc1cc(C)cc(Oc2nsnc(Cl)c2=O)c1

[0, 57, 74, 63]
